study target: T1, CD3 epsilon homodimer protein (UniProt P07766 23-126)
T1 construct: also called CD3 (CD3 epsilon)
T1 sequence (P07766 23-126): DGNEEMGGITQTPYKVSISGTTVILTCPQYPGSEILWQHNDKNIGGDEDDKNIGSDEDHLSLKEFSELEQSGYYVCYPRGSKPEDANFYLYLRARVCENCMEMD
test description: SPR, antibody over immobilised CD3e homodimer;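 note: SPR at 25 °C with CD3 epsilon homodimer amine-coupled to a CM4 sensor chip and antibody flowed over as analyte in HBS-EP+ running buffer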
property label: KD ratio to GLS3000
One number for each entry.

In the examples that follow, each entry is paired with its recorded KD ratio to GLS3000.
| binder | KD ratio to GLS3000 |
| --- | --- |
| CE115HA000/GLS3000 N28Q (antibody, IgG1, name in Kabat numbering, V domains shown, one-arm IgG1) VH: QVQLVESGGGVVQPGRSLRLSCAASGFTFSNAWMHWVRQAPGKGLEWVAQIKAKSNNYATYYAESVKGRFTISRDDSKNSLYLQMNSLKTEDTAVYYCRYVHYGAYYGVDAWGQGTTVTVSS VL: DIVMTQSPLSLPVTPGEPASISCRSSQSLVHSQRNTYLHWYQQKPGQAPRLLIYKVSNRFSGVPDRFSGSGSGTDFTLKISRVEAEDVGVYYCGQGTQVPYTFGQGTKLEIK | 3.48 |
| CE115HA000/GLS3000 S52A (antibody, IgG1, name in Kabat numbering, V domains shown, one-arm IgG1) VH: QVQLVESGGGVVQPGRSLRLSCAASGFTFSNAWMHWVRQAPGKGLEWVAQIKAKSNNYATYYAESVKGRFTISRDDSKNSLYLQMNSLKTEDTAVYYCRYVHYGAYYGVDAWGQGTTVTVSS VL: DIVMTQSPLSLPVTPGEPASISCRSSQSLVHSNRNTYLHWYQQKPGQAPRLLIYKVANRFSGVPDRFSGSGSGTDFTLKISRVEAEDVGVYYCGQGTQVPYTFGQGTKLEIK | 0.9 |
| CE115HA000/GLS3000 F55T (antibody, IgG1, name in Kabat numbering, V domains shown, one-arm IgG1) VH: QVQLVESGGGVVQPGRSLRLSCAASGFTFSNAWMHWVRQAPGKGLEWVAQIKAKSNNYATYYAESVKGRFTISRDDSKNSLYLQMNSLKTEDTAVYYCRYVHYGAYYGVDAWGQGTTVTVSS VL: DIVMTQSPLSLPVTPGEPASISCRSSQSLVHSNRNTYLHWYQQKPGQAPRLLIYKVSNRTSGVPDRFSGSGSGTDFTLKISRVEAEDVGVYYCGQGTQVPYTFGQGTKLEIK | 2.42 |
| CE115HA000/GLS3000 S25M (antibody, IgG1, name in Kabat numbering, V domains shown, one-arm IgG1) VH: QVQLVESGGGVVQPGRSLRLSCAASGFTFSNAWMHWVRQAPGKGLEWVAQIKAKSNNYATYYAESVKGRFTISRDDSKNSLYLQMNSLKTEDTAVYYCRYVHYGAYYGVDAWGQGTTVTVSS VL: DIVMTQSPLSLPVTPGEPASISCRMSQSLVHSNRNTYLHWYQQKPGQAPRLLIYKVSNRFSGVPDRFSGSGSGTDFTLKISRVEAEDVGVYYCGQGTQVPYTFGQGTKLEIK | 1.6 |

Now consider the entry below.
Look up KD ratio to GLS3000: CE115HA000/GLS3000 G89V (antibody, IgG1, name in Kabat numbering, V domains shown, one-arm IgG1) VH: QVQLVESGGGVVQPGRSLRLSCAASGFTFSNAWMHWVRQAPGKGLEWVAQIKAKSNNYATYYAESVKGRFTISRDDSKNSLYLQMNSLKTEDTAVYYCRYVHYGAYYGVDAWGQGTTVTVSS VL: DIVMTQSPLSLPVTPGEPASISCRSSQSLVHSNRNTYLHWYQQKPGQAPRLLIYKVSNRFSGVPDRFSGSGSGTDFTLKISRVEAEDVGVYYCVQGTQVPYTFGQGTKLEIK 1.4
